GI50 values by entry
tested on: SK-MEL-28; assay: NCI tumour cell line growth inhibition, 48 h
Active and inactive are the calls of the source. No stated cut-off is given here; in the data, active = GI50 up to about 1.1 µM and inactive = higher.

[[record]]
compound = "COc1cccc2c(=O)oc(-c3ccc(C(C)(C)C)cc3)nc12"
assay_result = "> 100 µM (inactive)"


Here COP(=O)(OC)C(O)CC(C)C (stereo unspecified) was tested on SK-MEL-28, and its GI50 came to > 100 µM (inactive)

The compound CC(C)(C)OC(=O)NCCCCC(N)C(N)=O (stereo unspecified) , when measured on SK-MEL-28, yielded GI50 of > 100 µM (inactive)

SK-MEL-28 data for CC(=O)/C(=C/n1c(=S)sc2ccccc21)C(=O)Nc1ccccc1C ; its GI50: > 100 µM (inactive)

Entry Cc1cccc(N2C(=O)C(=O)C(c3nc4ccccc4s3)/C(=N/NC(=S)NN)C2=O)c1C (stereo unspecified) , SK-MEL-28 data, GI50 value: > 100 µM (inactive)

Let me check: C=Cc1c(-c2ccccc2)cnc2[nH]c3ccccc3c12 , system SK-MEL-28, measured GI50 is > 50 µM (inactive)

----------
Some molecules, each annotated with its measured GI50.
tested on: NCI-H226; assay: NCI tumour cell line growth inhibition, 48 h
The source made the active and inactive calls. No stated cut-off is given here; in the data, active = GI50 up to about 1.1 µM and inactive = higher.

Example molecules with recorded GI50:
[[record]]
molecule = "COC(=O)/C(C#N)=C(/NCCN)Nc1ccccc1"
measured_target = "NCI-H226"
assay_result = "> 100 µM (inactive)"

[[record]]
molecule = "CC1(Cl)CC2C(CC1Sc1nnnn1-c1ccccc1)C2(C)C (stereo unspecified)"
measured_target = "NCI-H226"
assay_result = "> 100 µM (inactive)"

[[record]]
molecule = "N#CC(C#N)=C/C=C/c1ccccc1[N+](=O)[O-]"
measured_target = "NCI-H226"
assay_result = "> 10 µM (inactive)"

[[record]]
molecule = "c1csc(-c2ccc(-c3ccsc3)s2)c1"
measured_target = "NCI-H226"
assay_result = "> 75.5 µM (inactive)"


Item CC1CC[C@]2(C(=O)O)CCC3(C)C(=C2[C@H]1C)C=CC1[C@@]2(C)CC[C@H](O)C(C)(C)C2CC[C@]13C (stereo partly specified) was tested on NCI-H226; the reported GI50 is 66.1 µM (inactive)

The molecule Cc1nc(C)c(N2CCN([N+](=O)[O-])CC2)c(O)n1 , tested on NCI-H226, showed GI50 of > 100 µM (inactive)

Test item O=C(O)c1ccc([I+]c2ccccc2)cc1 ; NCI-H226; reported GI50 was > 100 µM (inactive)

The molecule c1ccc([P+](Cc2csnn2)(c2ccccc2)c2ccccc2)cc1 on NCI-H226: GI50 was > 100 µM (inactive)

Let me check: Cc1ccc(S(=O)(=O)NC2(C=O)CCC(C(C)(C)C)CC2)cc1 (stereo unspecified) , system NCI-H226, measured GI50 is > 100 µM (inactive)

The reported NCI-H226 GI50 of CN(C)c1ccc(C2SCC(=O)N2c2ccc(Oc3ccc(Cl)cc3)c(Cl)c2)cc1 (stereo unspecified) is 30.4 µM (inactive)

Here NC(Cc1n[nH]c2ccccc12)C(=O)O (stereo unspecified) was tested on NCI-H226, and its GI50 came to > 100 µM (inactive)

----------
system: IGROV-1; experiment: NCI tumour cell line growth inhibition, 48 h
Activity calls are given as the source filed them. Cut-off read from the data, not from the text of the source: active = GI50 up to about 1.1 µM and inactive = higher. Peptide text beside a SMILES is read from it. * marks the point of attachment. Boc = CC(C)(C)OC(=O)*
Each entry below lists one item and its recorded GI50 value.

[[record]]
molecule = "CC(=O)C(C(=O)c1ccc(C)cc1)[C@H]1OC(C)(C)O[C@H]1[C@H]1COC(C)(C)O1 (some centres undefined)"
assay_result = "3.17 µM (inactive)"

[[record]]
molecule = "CCCC(O)c1cn(-c2cccc(S(=O)(=O)O)c2)nn1 (centres undefined)"
assay_result = "> 100 µM (inactive)"

[[record]]
molecule = "CC(=O)Oc1ccc(/C=C/C(=O)O[C@@H](C(=O)O)[C@@H](OC(=O)/C=C/c2ccc(OC(C)=O)c(OC(C)=O)c2)C(=O)O)cc1OC(C)=O"
assay_result = "> 100 µM (inactive)"

[[record]]
molecule = "COc1cccc(-c2c(C#N)c(N)nc3c2CCS(=O)(=O)c2ccc(C)cc2-3)c1"
assay_result = "> 100 µM (inactive)"

[[record]]
molecule = "COC(=O)C(Cc1ccccc1)NC(=O)C(CS)NC(=O)OC(C)(C)C (stereo not drawn) (Boc-Cys-Phe-OMe; configuration not given here)"
assay_result = "> 100 µM (inactive)"

[[record]]
molecule = "c1csc(-c2ccc(-c3ccsc3)s2)c1"
assay_result = "> 100 µM (inactive)"

[[record]]
molecule = "CC(=O)O[C@@H]1CC[C@@]2(C)C(CC[C@H]3[C@@H]4CC[C@H]([C@H](C)CCc5nc6cc(C)ccc6[nH]5)[C@@]4(C)CC[C@@H]32)C1 (some centres undefined)"
assay_result = "4.34 µM (inactive)"

[[record]]
molecule = "O=C(CSc1nc2ccccc2s1)c1sc2sc3ccccc3[n+]2c1[O-]"
assay_result = "> 100 µM (inactive)"

[[record]]
molecule = "[N-]=[N+]=NC(c1cn(C2CC(O)C(CO)O2)c(=O)[nH]c1=O)C(Br)Br (centres undefined)"
assay_result = "> 100 µM (inactive)"

[[record]]
molecule = "O=C1c2cccnc2S(=O)(=O)N1c1ccc(Br)cc1"
assay_result = "> 100 µM (inactive)"


GI50 in this record for CCN1CN(c2ccccc2)C2(CCN(CC3COc4ccccc4O3)CC2)C1=O (centres undefined) : 53.7 µM (inactive)

Entry under test: C[C@@H]1OC(=O)N2CCCC(=C3SCCCS3)C12 (some centres undefined) . Its GI50 was 90.8 µM (inactive)

get_value(item= C/C(=N\NC(=O)c1ccncc1)c1cccc(F)c1 , readout=GI50) returns > 10 µM (inactive)
